# Test system: RARg:RXRa (NR concentration 270 nM, RXRa partner concentration 90 nM)
# experimentSummary: PBM binding z-score (relative to random genomic background probes); higher = stronger binding; sequences stand for … in GC…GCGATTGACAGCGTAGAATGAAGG
Kindly supply the reported PBM binding z-score values for the records listed here.
One number for each entry.

| seqString | PBM binding z-score |
| --- | --- |
| TTACCAAGCTGAAAGGTCGTTGATGCACGCCTTG | 1.06 |
| TCTAGTTGGTCACGGAGGTCACGCACGACGGGTA | 5.46 |
| GATACAGGGTCAGCTAGAGGCCTGAGTATGGAAA | 4.73 |
| TCTAGTTGTTCAAAGGTCACACACTCGAAATGCG | 6.3 |
| ACAGACAGCTGAGTGAAGGTAACTCAGCTGGACG | -0.23 |

# ---- query sequence ----
## Input Suppose we examine the sequence `TCTGCTAGGTCAGTTGGTCTGCTAACGAGCTGCC` ; what PBM binding z-score value has been reported?
## Output 1.92
